# collection of pKd values tested on c-Cbl (residues 47-435) (Homo sapiens (Human))
# Sequence (P22681 47-435): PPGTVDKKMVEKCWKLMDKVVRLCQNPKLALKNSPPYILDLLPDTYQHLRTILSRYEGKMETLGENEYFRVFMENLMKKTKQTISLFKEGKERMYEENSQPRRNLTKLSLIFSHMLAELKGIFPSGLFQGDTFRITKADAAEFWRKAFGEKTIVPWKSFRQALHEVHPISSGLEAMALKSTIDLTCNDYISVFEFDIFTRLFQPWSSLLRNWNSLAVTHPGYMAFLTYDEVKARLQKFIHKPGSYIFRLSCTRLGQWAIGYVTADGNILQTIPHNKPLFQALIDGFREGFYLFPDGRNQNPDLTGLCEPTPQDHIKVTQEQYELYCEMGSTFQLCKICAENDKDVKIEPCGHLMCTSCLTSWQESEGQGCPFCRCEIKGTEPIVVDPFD
Note on pKd: it is the negative log10 of concentration, concentration in mol/L.

Some solved entries appear below for comparison.
{"COMPOUND": "Cn1cnnc1[C@@H](c1cccc(N2Cc3c(Cl)cc(CNC4(C)CCC4)cc3C2=O)c1)[C@H]1C[C@@H](F)C1", "TARGET_UNDER_TEST": "c-Cbl (residues 47-435) (Homo sapiens (Human))", "pKd": 5.82}
{"COMPOUND": "Cn1cnnc1[C@@H](c1cccc(N2Cc3c(cc(CNC4(C)CCC4)cc3C(F)(F)F)C2=O)c1)C1CC(F)C1 (single isomer, unassigned)", "TARGET_UNDER_TEST": "c-Cbl (residues 47-435) (Homo sapiens (Human))", "pKd": 8.80}

State pKd (c-Cbl (residues 47-435) (Homo sapiens (Human))) of Cn1cnnc1[C@]1(c2cccc(N3Cc4c(cc(CNC5(C)CCC5)cc4C(F)(F)F)C3=O)c2)C[C@@](O)(C(F)F)C1 . 7.12

Provide measured pKd on c-Cbl (residues 47-435) (Homo sapiens (Human)) for COC[C@H]1C[C@@](c2cccc(N3Cc4c(cc(CNC5(C)CCC5)cc4C(F)(F)F)C3=O)c2)(c2nncn2C)C1 please. 7.92

Report value only: pKd, c-Cbl (residues 47-435) (Homo sapiens (Human)), CO[C@H]1C[C@](c2cccc(N3Cc4c(cc(CNC(C)C)cc4C(F)(F)F)C3=O)c2)(c2nncn2C)C1 6.62

Report value only: pKd, c-Cbl (residues 47-435) (Homo sapiens (Human)), Cn1cnnc1[C@@](C)(O)c1cccc(N2Cc3c(cc(CNC4(C)CCC4)cc3C(F)(F)F)C2=O)c1 6.55

* * *

Entries with their measured pKd, system c-Cbl (residues 47-435) (Homo sapiens (Human), UniProt P22681):
// pKd: -log10(molar conc.)

{"COMPOUND": "Cn1cnnc1[C@@H](c1cccc(N2Cc3c(cc(CNC4(C)CCC4)cc3C(F)(F)F)C2=O)c1)C1CCC1", "pKd": 5.66}

Recall the reported pKd of CO[C@H]1C[C@](c2cc(OC(C)C)cc(N3Cc4c(cc(CNC5(C)CCC5)cc4C(F)(F)F)C3=O)c2)(c2nncn2C)C1 when tested on c-Cbl (residues 47-435) (Homo sapiens (Human), UniProt P22681). 7.62

Consider the compound CO[C@H]1C[C@](c2cccc(N3Cc4c(cc(CNCC(C)C)cc4C(F)(F)F)C3=O)c2)(c2nncn2C)C1 tested on c-Cbl (residues 47-435) (Homo sapiens (Human), UniProt P22681); state its pKd. 7.62

Give pKd; test system c-Cbl (residues 47-435) (Homo sapiens (Human), UniProt P22681); compound CO[C@](c1cccc(N2Cc3c(cc(CNC4(C)CCC4)cc3C(F)(F)F)C2=O)c1)(c1nncn1C)C1CCC1 (single isomer, unassigned) 5.64

Return reported pKd for target or system c-Cbl (residues 47-435) (Homo sapiens (Human), UniProt P22681), item Cn1cnnc1[C@]1(c2cccc(N3Cc4c(cc(CNC5(C)CCC5)cc4C(F)(F)F)C3=O)c2)C[C@@]2(CCO2)C1 . 6.85

Fill: pKd (c-Cbl (residues 47-435) (Homo sapiens (Human), UniProt P22681)) for this compound Cn1cnnc1[C@]1(c2cccc(N3Cc4c(cc(CNC5(C)CCC5)cc4C(F)(F)F)C3=O)c2)C[C@@H](OCC#N)C1 8.15

Retrieve pKd on c-Cbl (residues 47-435) (Homo sapiens (Human), UniProt P22681); query CO[C@H]1C[C@](c2cc(NC3CCCC3)nc(N3Cc4c(cc(CNC5(C)CCC5)cc4C(F)(F)F)C3=O)c2)(c2nncn2C)C1 6.66

Param request: pKd | system c-Cbl (residues 47-435) (Homo sapiens (Human), UniProt P22681) | item CO[C@H]1C[C@@](c2cccc(N3Cc4c(cc([C@H](C)NC5(C)CCC5)cc4C(F)(F)F)C3=O)c2)(c2nncn2C)C1 (single isomer, unassigned) 6.55

State recorded pKd with c-Cbl (residues 47-435) (Homo sapiens (Human), UniProt P22681), entry Cn1cnnc1C1(c2cccc(N3Cc4c(cc(CNC5(C)CCC5)cc4C(F)(F)F)C3=O)c2)CC1 , no comment. 6.66
